# System: CK2A1 (CK2α/β) (Homo sapiens, UniProt P68400)
# Sequence (P68400 whole entry, species assumed): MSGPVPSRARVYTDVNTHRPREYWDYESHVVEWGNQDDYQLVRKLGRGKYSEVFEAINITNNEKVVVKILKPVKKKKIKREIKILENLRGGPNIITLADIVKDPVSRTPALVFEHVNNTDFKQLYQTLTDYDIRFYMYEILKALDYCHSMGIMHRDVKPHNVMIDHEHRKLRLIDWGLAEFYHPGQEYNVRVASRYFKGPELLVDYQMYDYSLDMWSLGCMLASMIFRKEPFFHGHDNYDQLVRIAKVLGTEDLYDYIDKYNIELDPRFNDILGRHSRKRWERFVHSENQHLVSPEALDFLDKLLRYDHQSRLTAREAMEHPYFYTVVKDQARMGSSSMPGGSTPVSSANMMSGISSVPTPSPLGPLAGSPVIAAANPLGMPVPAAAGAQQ
# Sequence (P67870 whole entry partner, species assumed): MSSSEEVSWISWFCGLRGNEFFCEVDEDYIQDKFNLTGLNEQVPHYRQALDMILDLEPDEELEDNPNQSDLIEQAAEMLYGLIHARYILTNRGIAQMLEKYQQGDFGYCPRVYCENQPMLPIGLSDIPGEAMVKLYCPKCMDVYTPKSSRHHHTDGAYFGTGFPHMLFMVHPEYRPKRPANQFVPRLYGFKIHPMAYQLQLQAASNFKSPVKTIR
# Experiment description: CK2 kinase assay, CK2A1 (CK2α/β)
# Format: biochemical
# Condition notes: Table A; read-out: CK2A1 (CK2α/β) (IC50)
Counter-ions that a name gives are not always drawn.
Metric: IC50 (nM)

Sample records with IC50:
| Compound | IC50 (nM) |
| --- | --- |
| CN1CCN(C2CN(c3cc(C#N)cc(Nc4nc(NC5CC5)c5ncc(C#N)n5n4)c3Cl)C2)CC1=O | 0.36 |
| COC(=O)N[C@@H]1CN(c2cc(C#N)cc(Nc3nc(NC4CC4)c4ncc(C#N)n4n3)c2Cl)C[C@H]1C (racemic) | 1.16 |
| N#Cc1cc(Nc2nc(NC3CC3)c3ncc(C#N)n3n2)c(Cl)c(C(O)CN2CCC(O)CC2)c1 (stereo not drawn) | 2.4 |

a: CO[C@@H]1CN(c2cc(C#N)cc(Nc3nc(NC4CC4)c4ncc(C#N)n4n3)c2Cl)CC1NC1COC1 (stereo in doubt) [Example 302, HCl]
b: CC(=O)N[C@@H]1CN(c2cc(C#N)cc(Nc3nc(NC4CC4)c4ncc(C#N)n4n3)c2Cl)CC[C@H]1O (racemic)
c: N#Cc1cc(Nc2nc(NC3CC3)c3ncc(C#N)n3n2)c(Cl)c(N2CC[C@@H](NC(=O)N3CCOCC3)[C@H](O)C2)c1 (racemic)
Prompt line: Descending sort on IC50 required. Reply: labels, ordered per the request.
Response line: a, c, b

###

# System: CK2A1 (CK2α/β) (Homo sapiens, UniProt P68400)
# Experiment description: CK2 kinase assay, CK2A1 (CK2α/β)
# Type: biochemical
# Condition notes: Table A; read-out: CK2A1 (CK2α/β) (IC50)
pIC50: −log10 of the molar value.
Metric: pIC50

Sample records with pIC50:
| Compound | Value observed |
| --- | --- |
| COCCN(C)CC1CN(c2cc(C#N)cc(Nc3nc(NC4CC4)c4ncc(C#N)n4n3)c2Cl)CCO1 (centres unmarked) | 8.61 |
| N#Cc1cc(Nc2nc(NC3CC3)c3ncc(C#N)n3n2)c(Cl)c(N2CCN(C3CC3)CC2)c1 | 8.87 |
| N#Cc1cc(CN2CCNC(=O)C2)c(Cl)c(Nc2nc(NC3CC3)c3ncc(C#N)n3n2)c1 | 9.52 |
| CCNc1nc(Nc2cc(C#N)cc(N3CC[C@@H]4[C@@H](C3)OC(=O)N4[C@H]3CCOC3)c2Cl)nn2c(C#N)cnc12 (single isomer, unassigned) [Example 842] | 8.69 |
| N#Cc1cc(Nc2nc(NC3CC3)c3ncc(C#N)n3n2)c(Cl)c(N2CCN(C(=O)CCN3CCCCC3)CC2)c1 | 9.10 |
| N#Cc1cc(Nc2nc(NC3CC3)c3ncc(C#N)n3n2)c(Cl)cc1CCCO | 10.00 |

I: N#Cc1cc(Nc2nc(NC3CC3)c3ncc(C#N)n3n2)c(Cl)c(N2CCN(CC(N)=O)CC2=O)c1
II: CN[C@@H]1CCC[C@H](c2cc(C#N)cc(Nc3nc(NC4CC4)c4ncc(C#N)n4n3)c2Cl)C1
III: CCNc1nc(Nc2cc(C#N)cc(N3C[C@H](NC(=O)OC)[C@@H](OC)C3)c2Cl)nn2c(C#N)cnc12
Prompt line: Descending sort on pIC50 required. Reply: labels, ordered per the request.
Response line: III, II, I
